- target_under_test: human Lck enzyme (Homo sapiens, UniProt P06239)
- Construct: purchased Carna Biosciences, Inc. 08-170
- Sequence (P06239 whole entry): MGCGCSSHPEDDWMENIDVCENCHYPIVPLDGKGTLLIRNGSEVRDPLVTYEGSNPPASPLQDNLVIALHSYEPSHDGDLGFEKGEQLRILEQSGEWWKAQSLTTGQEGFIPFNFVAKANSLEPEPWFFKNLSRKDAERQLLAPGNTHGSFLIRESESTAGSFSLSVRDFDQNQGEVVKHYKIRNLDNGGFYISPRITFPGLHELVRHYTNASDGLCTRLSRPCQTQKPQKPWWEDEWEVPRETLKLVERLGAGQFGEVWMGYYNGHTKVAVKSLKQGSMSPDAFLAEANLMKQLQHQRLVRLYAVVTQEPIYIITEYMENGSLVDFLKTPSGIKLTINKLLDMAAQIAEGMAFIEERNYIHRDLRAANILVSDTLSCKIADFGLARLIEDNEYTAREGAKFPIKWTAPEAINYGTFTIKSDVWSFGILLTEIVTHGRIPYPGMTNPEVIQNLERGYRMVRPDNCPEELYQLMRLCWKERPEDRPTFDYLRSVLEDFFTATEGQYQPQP
- experimental_protocol: Lck enzyme inhibitory activity (time-resolved fluorometry, biotinylated peptide phosphorylation)
- Assay type: biochemical
- assay_setup: biotinylated peptide phosphorylation, read-out: LCK_IC50
- Description: 3. Lck Enzyme Inhibitory Activity Lck inhibitory activity was determined based on activity of inhibiting phosphorylation reaction of a biotinylated peptide (EGPWLEEEEEAYGWMDF) using a human Lck enzyme (manufactured by Carna Biosciences, Inc., cat 08-170). The phosphorylated biotinylated peptide was detected by time-resolved fluorometry using an anti-phosphorylated tyrosine antibody conjugated to europium cryptate, and streptavidin conjugated to XL665, an allophycocyanin derivative. […]
// NB: equality with 30 nM counts as false; only IC50 strictly below is true

molecule | target_under_test | cat
Cc1cc2cc(C(=O)c3cnn(-c4cnc(Oc5ccccc5F)cc4C)c3N)[nH]c2cc1NS(=O)(=O)c1csc2ccccc12 [Example 5-1-467] | human Lck enzyme (Homo sapiens, UniProt P06239) | false
Cc1cc2cc(C(=O)c3cnn(-c4cnc(Oc5ccccc5Cl)cc4C)c3N)[nH]c2cc1NS(=O)(=O)N1CCOCC1 [Example 4-2-110] | human Lck enzyme (Homo sapiens, UniProt P06239) | false
Cc1cccc(S(=O)(=O)Nc2cc3[nH]c(C(=O)c4cnn(-c5ccc(Oc6ccccc6F)cc5C)c4N)cc3cc2C)n1 [Example 5-1-530] | human Lck enzyme (Homo sapiens, UniProt P06239) | false
Cc1cc(Oc2ccccc2F)cc(F)c1-n1ncc(C(=O)c2cc3cc(NS(C)(=O)=O)c(F)cc3[nH]2)c1N [Example 4-2-099] | human Lck enzyme (Homo sapiens, UniProt P06239) | true
Cc1cc(Oc2ccccc2F)ccc1-n1ncc(C(=O)c2cc3cc(F)c(NS(=O)(=O)c4cccnc4)cc3[nH]2)c1N [Example 5-1-489] | human Lck enzyme (Homo sapiens, UniProt P06239) | false
Cc1cc2cc(C(=O)c3cnn(-c4ccc(Oc5ccccc5F)cc4C)c3N)[nH]c2cc1N1C(=O)N[C@@H](CO)C1=O [Example 5-1-456] | human Lck enzyme (Homo sapiens, UniProt P06239) | true
Cc1cc(Oc2c(F)cccc2F)ncc1-n1ncc(C(=O)c2cc3cc(F)c(N4CCCS4(=O)=O)cc3[nH]2)c1N [Example 4-9-002] | human Lck enzyme (Homo sapiens, UniProt P06239) | true
Cc1cccc(S(=O)(=O)Nc2cc3[nH]c(C(=O)c4cnn(-c5cnc(Oc6c(F)cccc6F)cc5C)c4N)cc3cc2C)n1 [Example 5-1-531] | human Lck enzyme (Homo sapiens, UniProt P06239) | false
Cc1cc2cc(C(=O)c3cnn(-c4cnc(Oc5ccccc5F)cc4C)c3N)[nH]c2cc1NS(=O)(=O)c1cc(F)cc(C#N)c1 [Example 5-1-497] | human Lck enzyme (Homo sapiens, UniProt P06239) | false
Cc1cc2cc(C(=O)c3cnn(-c4c(C)cc(Oc5ccccc5)cc4F)c3N)[nH]c2cc1NS(C)(=O)=O [Example 4-2-060] | human Lck enzyme (Homo sapiens, UniProt P06239) | true
Cc1cc(Oc2ccccc2F)ccc1-n1ncc(C(=O)c2cc3cc(F)c(NS(=O)(=O)c4cccc(C#N)c4)cc3[nH]2)c1N [Example 5-1-490] | human Lck enzyme (Homo sapiens, UniProt P06239) | false
Cc1cc(Oc2c(F)cccc2F)ncc1-n1ncc(C(=O)c2cc3cc(F)c(NS(=O)(=O)c4c(F)cc(F)cc4F)cc3[nH]2)c1N [Example 5-1-567] | human Lck enzyme (Homo sapiens, UniProt P06239) | false
Cc1cc(Oc2ccccc2F)ncc1-n1ncc(C(=O)c2cc3cc(OCC(F)F)c(NS(=O)(=O)N4CCOCC4)cc3[nH]2)c1N [Example 4-22-006] | human Lck enzyme (Homo sapiens, UniProt P06239) | false
Cc1cc2cc(C(=O)c3cnn(-c4ccc(Oc5ccccc5F)cc4C)c3N)[nH]c2cc1N1C(=O)NC2(CCCCC2)C1=O [Example 5-1-409] | human Lck enzyme (Homo sapiens, UniProt P06239) | true
Cc1cc(Oc2ccccc2)cc(F)c1-n1ncc(C(=O)c2cc3cc(NS(C)(=O)=O)c(F)cc3[nH]2)c1N [Example 4-2-103] | human Lck enzyme (Homo sapiens, UniProt P06239) | true
Cc1cc(Oc2c(F)cccc2F)ncc1-n1ncc(C(=O)c2cc3cc(Cl)c(NS(C)(=O)=O)cc3[nH]2)c1N [Example 4-2-086] | human Lck enzyme (Homo sapiens, UniProt P06239) | true
Cc1cc(Oc2cc(F)ccc2F)cc(F)c1-n1ncc(C(=O)c2cc3cc(F)c(NS(=O)(=O)C4CC4)cc3[nH]2)c1N [Example 4-7-008] | human Lck enzyme (Homo sapiens, UniProt P06239) | false
Cc1cc2cc(C(=O)c3cnn(-c4cnc(Oc5ccccc5F)cc4C)c3N)[nH]c2cc1NS(=O)(=O)c1cncc(F)c1 [Example 5-1-494] | human Lck enzyme (Homo sapiens, UniProt P06239) | false
Cc1cc(Oc2ccccc2)cc(F)c1-n1ncc(C(=O)c2cc3cc(F)c(NS(C)(=O)=O)cc3[nH]2)c1N [Example 4-7-013] | human Lck enzyme (Homo sapiens, UniProt P06239) | true
Cc1cc(Oc2ccccc2F)cc(F)c1-n1ncc(C(=O)c2cc3cc(OCC(F)F)c(NC4CN(S(C)(=O)=O)C4)cc3[nH]2)c1N [Example 4-23-027] | human Lck enzyme (Homo sapiens, UniProt P06239) | true
Cc1cc2cc(C(=O)c3cnn(-c4ccc(Oc5cccc(F)c5F)cc4C)c3N)[nH]c2cc1NS(C)(=O)=O [Example 4-2-054] | human Lck enzyme (Homo sapiens, UniProt P06239) | true
Cc1cc(Oc2ccccc2Cl)cc(F)c1-n1ncc(C(=O)c2cc3cc(Cl)c(NS(C)(=O)=O)cc3[nH]2)c1N [Example 4-2-082] | human Lck enzyme (Homo sapiens, UniProt P06239) | false
Cc1cc(Oc2c(F)cccc2F)ncc1-n1ncc(C(=O)c2cc3cc(F)c(N4C(=O)[C@@H]5C[C@@H](O)CN5C4=O)cc3[nH]2)c1N [Example 5-1-433] | human Lck enzyme (Homo sapiens, UniProt P06239) | true
Cc1cc(Oc2ccccc2F)ncc1-n1ncc(C(=O)c2cc3cc(OCC(F)F)c(N4CCC(N5CCOCC5)CC4)cc3[nH]2)c1N [Example 4-25-026] | human Lck enzyme (Homo sapiens, UniProt P06239) | true
Cc1cc2cc(C(=O)c3cnn(-c4c(C)cc(Oc5ccccc5F)cc4F)c3N)[nH]c2cc1NS(C)(=O)=O [Example 4-2-055] | human Lck enzyme (Homo sapiens, UniProt P06239) | true

Source: patent US10479780B2
